Molecular target: human arginase I (Homo sapiens, UniProt P05089)
Sequence (P05089 1-322): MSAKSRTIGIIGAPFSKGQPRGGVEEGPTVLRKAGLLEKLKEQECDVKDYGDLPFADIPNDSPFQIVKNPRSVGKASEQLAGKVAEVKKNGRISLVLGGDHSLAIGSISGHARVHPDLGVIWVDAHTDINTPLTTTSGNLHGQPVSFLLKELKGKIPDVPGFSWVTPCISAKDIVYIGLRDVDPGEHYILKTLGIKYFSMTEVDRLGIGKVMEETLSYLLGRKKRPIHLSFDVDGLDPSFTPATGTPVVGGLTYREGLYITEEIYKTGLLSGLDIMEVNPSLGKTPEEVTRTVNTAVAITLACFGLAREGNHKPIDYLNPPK
Assay: Arginase inhibition, QuantiChrom colorimetric urea assay, IC50 converted to Ki
Assay type: biochemical
Conditions: Table 3; pH 9.5; read-out: human Arginase I pH 9.5, Ki assigned value
pKi: −log10 of the molar value.
value kind: pKi

In [3]: df
Out[3]:
                                    compound  value_kind  recorded_measurement
 0  CN(CCCC(N)(CCCCB(O)O)C(=O)O)Cc1ccc2ccccc2c1 (stereo not drawn)         pKi          7.30 to 7.96
 1  NC(CCCCB(O)O)(CCCCN1CCC(Cc2ccc(F)c(F)c2)CC1)C(=O)O (stereo not drawn)         pKi                > 8.00
 2  NC(CCCCB(O)O)(CCCN1CCC(Oc2ccc(C(F)(F)F)cc2)CC1)C(=O)O (stereo not drawn)         pKi                > 8.00
 3  NC(CCCCB(O)O)(CCC1CCCCN1Cc1cc(F)cc(F)c1)C(=O)O (stereo not drawn)         pKi          7.30 to 7.96
 4  NC(CCCCB(O)O)(CCCN1CCC1)C(=O)O (stereo not drawn)         pKi          7.30 to 7.96
 5  NC(CCCCB(O)O)(CCCN1CCC(NS(=O)(=O)c2ccc(Cl)c(Cl)c2)C1)C(=O)O (stereo not drawn)         pKi          7.30 to 7.96
 6  NC(CCCCB(O)O)(CCCCN1CCN(c2ccc(Cl)c(Cl)c2)CC1)C(=O)O (stereo not drawn)         pKi          7.30 to 7.96
 7  NC(CCCCB(O)O)(CCCN1CCc2ccccc2C1)C(=O)O (stereo not drawn)         pKi          7.30 to 7.96
 8  NC(CCCCB(O)O)(CCCN1CCCC1c1ccc(-c2ccccc2)cc1)C(=O)O (stereo not drawn)         pKi          7.30 to 7.96
 9  CN(C)CCN(C)CCCC(N)(CCCCB(O)O)C(=O)O (stereo not drawn)         pKi          7.30 to 7.96
10  NC(CCCCB(O)O)(CCCCN1CCNCC1)C(=O)O (stereo not drawn)         pKi          7.30 to 7.96
11  NC(CCCCB(O)O)(CCCN1CCC(O)(c2ccc(Cl)cc2)CC1)C(=O)O (stereo not drawn)         pKi                > 8.00
12  NC(CCCCB(O)O)(CCCN1CCN(c2ccc(C(F)(F)F)cn2)CC1)C(=O)O (stereo not drawn)         pKi          7.30 to 7.96
13  CN(CCCC(N)(CCCCB(O)O)C(=O)O)CCc1ccccc1 (stereo not drawn)         pKi          7.30 to 7.96
14  NC(CCCCB(O)O)(CCCn1cnc2ccccc21)C(=O)O (stereo not drawn)         pKi          7.30 to 7.96
15  NC(CCCCB(O)O)(CCCN1CCN(c2ccc(Cl)c(Cl)c2)CC1)C(=O)O (stereo not drawn)         pKi          7.00 to 7.29
16  CN(C)CCNCCCC(N)(CCCCB(O)O)C(=O)O (stereo not drawn)         pKi                > 8.00
17  NC(CCCCB(O)O)(CCCN1CCOCC1)C(=O)O (stereo not drawn)         pKi          7.30 to 7.96
